Target: Glycogen phosphorylase, muscle form (Oryctolagus cuniculus, UniProt P00489)
Sequence (P00489 whole entry): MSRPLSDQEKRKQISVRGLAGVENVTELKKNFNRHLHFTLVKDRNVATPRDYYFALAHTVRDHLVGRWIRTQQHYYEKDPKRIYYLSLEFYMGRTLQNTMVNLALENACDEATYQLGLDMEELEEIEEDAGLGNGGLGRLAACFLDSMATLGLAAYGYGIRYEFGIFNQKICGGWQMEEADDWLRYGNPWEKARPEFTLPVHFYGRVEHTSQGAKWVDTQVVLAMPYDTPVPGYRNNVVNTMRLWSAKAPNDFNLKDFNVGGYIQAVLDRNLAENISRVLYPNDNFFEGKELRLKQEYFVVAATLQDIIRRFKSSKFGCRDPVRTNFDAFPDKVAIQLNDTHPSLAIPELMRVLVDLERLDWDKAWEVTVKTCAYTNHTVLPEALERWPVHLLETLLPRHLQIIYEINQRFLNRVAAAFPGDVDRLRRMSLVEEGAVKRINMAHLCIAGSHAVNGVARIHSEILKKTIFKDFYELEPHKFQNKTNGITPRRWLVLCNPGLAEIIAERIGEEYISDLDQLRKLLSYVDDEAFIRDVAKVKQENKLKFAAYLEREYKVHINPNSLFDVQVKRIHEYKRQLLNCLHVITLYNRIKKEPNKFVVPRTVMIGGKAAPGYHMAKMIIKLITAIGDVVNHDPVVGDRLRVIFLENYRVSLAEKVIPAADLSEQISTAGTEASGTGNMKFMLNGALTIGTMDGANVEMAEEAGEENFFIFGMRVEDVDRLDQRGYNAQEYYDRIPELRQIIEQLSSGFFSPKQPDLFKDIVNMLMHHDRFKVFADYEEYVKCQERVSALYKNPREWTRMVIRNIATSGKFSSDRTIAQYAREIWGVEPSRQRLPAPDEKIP
Experiment: Inhibition of rabbit muscle glycogen phosphorylase
# key: entry, value: Ki
A number alone suffices; assume µM.

# count of solved cases: 2
O[C@@H]1[C@@H](O)[C@H](c2nc(-c3ccc4ccccc4c3)c[nH]2)OC[C@H]1O = 100
O[C@@H]1[C@@H](O)[C@H](c2nc(-c3ccccc3)c[nH]2)OC[C@H]1O = 800

Now for a further compound.
IN: For the compound shown here, O[C@@H]1[C@@H](O)[C@H](c2nc(-c3ccc4ccccc4c3)n[nH]2)OC[C@H]1O , give the reported Ki.
OUT: 491
